test: qHTS assay for small molecule agonists of the antioxidant response element (ARE) signaling pathway (AID 651741); conditions: HepG2 ARE-bla reporter, beta-lactamase FRET ratio, 16 h; series mostly up to 96 µM
Records with an inconclusive call do not appear. Calls of active or inactive are those of the source. The call rests on the fitted dose curve; in most records, active means well fitted activation curve with a large enough effect in the signal ratio; inconclusive means small, poorly fitted or top-dose-only effect, or effect the other way, or a change in a side signal; inactive means flat fitted curve, though single readings scatter; the % refers to the signal ratio.
Write down the outcome that applies. Available outcomes: t for active, f for inactive

So what was the verdict on C=CCCC in this test?
t

Short answer needed: outcome of this test for CCCCOCN(C(=O)CCl)c1c(CC)cccc1CC ?
t

So what was the verdict on CCC[CH2][Sn]([Cl])([CH2]CCC)[CH2]CCC in this test?
t

Status in this test for Clc1ccc([C@]2(Cn3cncn3)C[C@H](Br)CO2)c(Cl)c1 ?
f

Call for entry C=CC(=O)NCO :
t

I would be grateful if you could indicate the recorded call for CCSCCSP(=O)(OC)OC .
t

Please let me know the test result on file for COCC(=O)N(c1c(C)cccc1C)[C@H](C)C(=O)OC .
f

For CCC[CH2][Sn]([CH2]CCC)([O]C(C)=O)[O]C(C)=O , which call appears in the assay record?
t

Please indicate how the test categorized Oc1ccc(C(c2ccc(O)cc2)(C(F)(F)F)C(F)(F)F)cc1 .
t

State the result this test recorded for CNC(=O)Oc1cc(C)c(SC)c(C)c1 .
t

Called result for CC(C)(C#N)N=NC(C)(C)C#N
f

Could you check what this test reported for CCOP(=O)(O)C(N)=O ?
f

// return assay outcome for CC1(C)[C@H](C(=O)O[C@H](C#N)c2cccc(Oc3ccccc3)c2)[C@@H]1/C=C(\Cl)C(F)(F)F
t

Answer briefly: the call reported for Oc1cc(Cl)cc(Cl)c1Cl in this assay.
t

Tell me the assay call for CC(C)Oc1cc(-n2nc(C(C)(C)C)oc2=O)c(Cl)cc1Cl please.
t

Kindly provide the recorded test outcome for the following compound: CN(C)P(=O)(N(C)C)N(C)C
f

How did this test come out for COP(=O)(OC)O/C(=C\Cl)c1cc(Cl)c(Cl)cc1Cl ?
t

# outcome recorded in this test, key = CCCCC(C#N)(Cn1cncn1)c1ccc(Cl)cc1 (stereo not drawn)
f

// outcome(item) with item = CCOP(=O)(OCC)OP(=O)(OCC)OCC
f

Record request — test call for CC1=NNC(=O)N(/N=C/c2cccnc2)C1
f

Could you kindly confirm the outcome this assay logged for Cc1cccc2sc3nncn3c12 ?
t

Please indicate how the test categorized CC1CCCCC1NC(=O)Nc1ccccc1 (stereo not drawn) .
t

For O=[N+]([O-])C(Br)Br , what call appears in the results of this test?
t

Returns: the outcome recorded for O=c1[nH]c2ccccc2c(=O)o1 in this assay.
f

# lookup: test call for CC(C)(C)c1ccc(CSc2cnn(C(C)(C)C)c(=O)c2Cl)cc1
t

Which outcome was assigned to N#CN=C1SCCN1Cc1ccc(Cl)nc1 in this test?
f

For N#CC(Cl)Cl , what call appears in the results of this test?
t

Would you mind telling me which call this test gave O=[N+]([O-])c1ccc2ccc3cccc4ccc1c2c34 ?
t

Returns: the outcome recorded for CCC(C)(c1ccc(O)cc1)c1ccc(O)cc1 in this assay.
t

Name the outcome recorded for c1ccc2cc3c(ccc4ccccc43)cc2c1 in the assay.
t

So what was the verdict on CNC(=O)/C=C(\C)OP(=O)(OC)OC in this test?
f

Status in this test for c1ccc2c(c1)c1cccc3ccc4cccc2c4c31 ?
t

Hi team, can someone confirm the assay call for O=C1C=CC(=O)c2ccccc21 ?
t

Could you please tell me the result logged for CC(C)=CC1C(C(=O)OCc2coc(Cc3ccccc3)c2)C1(C)C (stereo not drawn) in this assay?
t

# fetch the recorded call for N#CC(CCc1ccc(Cl)cc1)(Cn1cncn1)c1ccccc1 (stereo not drawn) here
t

For c1cc[n+]2c(c1)-c1cccc[n+]1CC2 , which call appears in the assay record?
t

What did this assay record as the result for CCCOc1nn(C(=O)NS(=O)(=O)c2ccccc2C(=O)OC)c(=O)n1C ?
f

GET /call?item= CCc1cc(C)cc(CC)c1-c1c(OC(=O)C(C)(C)C)n2n(c1=O)CCOCC2 returns the recorded outcome of this test.
f

// outcome(item) with item = Nc1nc(N)nc(Cl)n1
f

State the result this test recorded for Cc1cc(C2CC2)nc(Nc2ccccc2)n1 .
t

Returns: the outcome recorded for CCOP(=O)(NC(C)C)Oc1ccc(S(C)=O)c(C)c1 (stereo not drawn) in this assay.
f

Dear colleague, could you share the recorded outcome for CCC[CH2][Sn]([CH2]CCC)([CH2]CCC)[O][Sn]([CH2]CCC)([CH2]CCC)[CH2]CCC when you have a moment?
t

Dear all, I need the recorded test outcome for CC(O)CN(CC(C)O)CC(C)O (stereo not drawn) , thank you.
t

# lookup: test call for COP(=O)(NC(C)=O)SC (stereo not drawn)
f

Please state the recorded outcome for this compound: CC(C)N(C(=O)CCl)c1ccccc1
t

Record lookup: outcome of this test for CCCOCC(=Nc1ccc(Cl)cc1C(F)(F)F)n1ccnc1 ?
t

Check the results log: what was the call for CCOC(=O)COc1cc(-c2nn(C)c(OC(F)F)c2Cl)c(F)cc1Cl ?
t

# fetch the recorded call for COc1nc(C)nc(NC(=O)NS(=O)(=O)c2ccccc2Cl)n1 here
f

Dear all, I need the recorded test outcome for C[C@H]1[C@H](c2ccc(Cl)cc2)SC(=O)N1C(=O)NC1CCCCC1 , thank you.
t

Short answer needed: outcome of this test for CC1(C)CON(Cc2ccccc2Cl)C1=O ?
f

How did this test come out for CC(C)(C)[C@@H](O)/C(=C\c1ccc(Cl)cc1Cl)n1cncn1 ?
t

What call does the record list for CC1=C(C(=O)Nc2ccccc2)S(=O)(=O)CCO1 ?
t

Which outcome was assigned to C#CCC1=C(C)[C@H](OC(=O)[C@H]2[C@H](C=C(C)C)C2(C)C)CC1=O in this test?
t

====

tested on: FAB9; test: qHTS profiling for inhibitors of Plasmodium falciparum proliferation (AID 504749); further: nearly all actives have a fitted effect of over 60% in size; further: potency means the concentration at half of the fitted maximal effect; conditions: P. falciparum in erythrocytes, SYBR Green DNA, 72 h; series mostly up to 28.7 µM
Results filed as inconclusive are left out. Calls of active or inactive are those of the source. Calls come from the whole dose curve; as a rule, active = well fitted inhibition curve with a large enough effect; inconclusive = small, poorly fitted or top-dose-only effect; inactive = flat fitted curve, though single readings scatter.
PROPERTY LABEL: Potency

Recorded results for 9 compounds are shown here.
[[record]]
compound = "C#C[C@]1(O)CC[C@H]2[C@@H]3CCC4=CC(=O)CCC4(C)[C@H]3CCC21C (stereo not given in full)"
property_label = "Potency"
result = "inactive"

[[record]]
compound = "C[C@@H](N)[C@@H](O)c1ccc(O)c(O)c1"
property_label = "Potency"
result = "inactive"

[[record]]
compound = "C[C@@H]1CC[C@H]2[C@@H](C)C(=O)O[C@@H]3OC4(C)CC[C@@H]1C32OO4 (stereo not given in full)"
property_label = "Potency"
result = "7.9 nM (active)"

[[record]]
compound = "CN1C2CCC1C(C(=O)O)C(OC(=O)c1ccccc1)C2 (stereo not given)"
property_label = "Potency"
result = "inactive"

[[record]]
compound = "CC12CCC3C4CCC(=O)C(O)=C4CCC3C1CCC2OC(=O)CCC1CCCC1 (stereo not given)"
property_label = "Potency"
result = "inactive"

[[record]]
compound = "Cc1ccc2c(c1)[C@@H]1CN(C)CC[C@H]1N2"
property_label = "Potency"
result = "inactive"

[[record]]
compound = "C=CC[N+]1(C)CCC23c4c5ccc(O)c4O[C@H]2C(=O)CC[C@@]3(O)C1C5 (stereo not given in full)"
property_label = "Potency"
result = "inactive"

[[record]]
compound = "C=CC[C@]1(O)CCC2C3CCC4=CCCCC4C3CCC21C (stereo not given in full)"
property_label = "Potency"
result = "inactive"

[[record]]
compound = "OCC(O)[C@H]1O[C@@H]2O[C@H](C(Cl)(Cl)Cl)O[C@@H]2[C@H]1O (stereo not given in full)"
property_label = "Potency"
result = "inactive"


Now take the following compound into account.
Potency reading for CC1(C)S[C@@H]2[C@H](N)C(=O)N2C1C(=O)O (stereo not given in full) : inactive

====

experiment: Cell Viability - LYMP2-008 (AID 980); conditions: LYMP2-008 lymphoblastoid cell viability, qHTS; series mostly up to 92.2 µM; further: nearly all actives have a fitted effect of over 60% in size
Results filed as inconclusive are left out. Active and inactive are the calls of the source. The call rests on the fitted dose curve; in most records, active means well fitted cell-killing curve with a large enough effect; inconclusive means small, poorly fitted or top-dose-only effect; inactive means flat fitted curve, though single readings scatter.
Please state which outcome applies, choosing from active, inactive

Which outcome was entered for the molecule O=C1C2(Cl)C3(Cl)C4(Cl)C(Cl)(Cl)C5(Cl)C3(Cl)C1(Cl)C5(Cl)C24Cl (stereo not drawn) in this test?
active

Kindly provide the recorded test outcome for the following molecule: ClC1=C(Cl)C2(Cl)C3C(Cl)C(Cl)CC3C1(Cl)C2(Cl)Cl (stereo not drawn)
inactive

Test call for this molecule, please: C[C@@H]1CC[C@@]2(OC1)O[C@H]1[C@@H](O)[C@H]3[C@@H]4CC[C@H]5C[C@@H](O[C@@H]6O[C@H](CO)[C@H](O[C@@H]7O[C@H](CO)[C@@H](O)[C@H](O[C@@H]8OC[C@@H](O)[C@H](O)[C@H]8O)[C@H]7O[C@@H]7O[C@H](CO)[C@@H](O)[C@H](O[C@@H]8O[C@H](CO)[C@@H](O)[C@H](O)[C@H]8O)[C@H]7O)[C@H](O)[C@H]6O)[C@H](O)C[C@]5(C)[C@H]4CC[C@]3(C)[C@H]1[C@@H]2C
active

Hi, sorry to bother you, what did the test record for [Cd+2].[Cl-].[Cl-] ?
active

// return assay outcome for N#CC(Cl)Cl
active

Please share the test call associated with O=Nc1ccc(Nc2ccccc2)cc1 .
active

Test call for this molecule, please: O=[N+]([O-])c1cc(C(F)(F)F)cc([N+](=O)[O-])c1Cl
active

Outcome? COP(=O)(OC)O/C(=C\Cl)c1cc(Cl)c(Cl)cc1Cl
inactive
